Molecular target: HDAC1 (Homo sapiens, UniProt Q13547)
Construct: HDAC1 1-482 Addgene; Strep-FLAG-HALO (N); made in house; host or cells: HEK293/T17
Sequence (Q13547 whole entry): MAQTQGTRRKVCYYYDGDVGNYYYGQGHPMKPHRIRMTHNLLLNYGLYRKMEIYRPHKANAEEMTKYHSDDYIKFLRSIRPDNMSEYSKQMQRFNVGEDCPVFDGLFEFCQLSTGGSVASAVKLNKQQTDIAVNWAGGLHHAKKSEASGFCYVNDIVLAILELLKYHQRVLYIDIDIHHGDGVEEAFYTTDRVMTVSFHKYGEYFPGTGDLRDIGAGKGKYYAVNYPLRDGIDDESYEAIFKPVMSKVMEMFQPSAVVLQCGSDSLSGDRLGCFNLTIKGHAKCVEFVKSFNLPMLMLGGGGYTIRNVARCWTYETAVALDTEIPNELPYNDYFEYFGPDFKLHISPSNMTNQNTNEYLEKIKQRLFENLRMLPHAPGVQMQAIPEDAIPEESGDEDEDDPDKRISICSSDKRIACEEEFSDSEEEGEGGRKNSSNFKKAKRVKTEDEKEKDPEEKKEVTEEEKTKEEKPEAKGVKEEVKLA
Experiment: In vitro deacetylation assay, HDAC1 (GAK substrate)
Format: biochemical
Conditions: Figure 2C, in vitro data (GAK) in μM
Listed compounds paired with reported EC50

[
  {
    "Query smiles": "O=C(NO)c1cnc(NC2(c3cccc(F)c3)CCCCC2)nc1",
    "EC50": "1.19 µM"
  },
  {
    "Query smiles": "O=C(CCCCCCC(=O)Nc1ccc([C@H]2O[C@@H](CSc3nc(-c4ccccc4)c(-c4ccccc4)o3)C[C@@H](c3ccc(CO)cc3)O2)cc1)NO",
    "EC50": "0.1 µM"
  }
]
